Test system: human SMAD7 mRNA
Assay: Antisense inhibition of human SMAD7 mRNA expression in Hep3B cells by 3-10-3 cEt gapmers, 10,000 nM, electroporation (Example 2)
Format: cell-based
Conditions: Hep3B cells, electroporation with 10,000 nM antisense oligonucleotide, approximately 24 hours, SMAD7 mRNA by RT-PCR (RTS5062), relative to untreated control cells
Strand notation (5' to 3'): a small letter for the sugar, then the base; units joined by * are phosphorothioate-linked, units joined directly phosphodiester-linked; [ ] holds rarer units or linkages, { } end groups; capitals alone tell only the bases. k = constrained ethyl (cEt); [5mC] = 5-methylcytosine; d = 2'-deoxy (DNA)
readout-label: % Inhibition (%)
Kindly answer with a numeric value in %, unit omitted.

## Task Please give the documented % Inhibition of 799390 (antisense k[5mC]*kA*kA*dA*dA*d[5mC]*dT*dT*dT*dT*dA*dA*dT*kT*kA*kG) [compound 799390]
## Result 0

## Task Using known records, supply % Inhibition for 799468 (antisense kT*k[5mC]*kA*d[5mC]*d[5mC]*dT*dT*dA*dG*dG*d[5mC]*d[5mC]*dT*kG*kT*kG) [compound 799468]
## Result 22

## Task Indicate the recorded % Inhibition value for this substance: 830097 (k[5mC]*k[5mC]*kA*dT*d[5mC]*dT*dA*dA*d[5mC]*dA*dA*d[5mC]*dA*kT*k[5mC]*k[5mC]; antisense) [compound 830097]
## Result 68

## Task Supply measured % Inhibition of 830064 (kA*kT*kG*dG*dT*dG*d[5mC]*dT*d[5mC]*dT*dG*d[5mC]*d[5mC]*k[5mC]*kT*kT; antisense) [compound 830064] in your reply.
## Result 29

## Task Provide measured % Inhibition value, entry: 799908 (antisense k[5mC]*kA*kT*dA*dA*dT*dA*dT*dT*dG*dA*d[5mC]*dA*kG*kT*kA) [compound 799908]
## Result 41

## Task Quickly give me recorded % Inhibition for 830046 (kT*k[5mC]*k[5mC]*dG*dA*dT*dT*dG*dG*d[5mC]*dA*dG*dG*kT*kT*kA; antisense) [compound 830046]
## Result 60

## Task Return the recorded % Inhibition value; entry: 800002 (k[5mC]*k[5mC]*k[5mC]*d[5mC]*dA*dA*dG*dA*dT*dT*d[5mC]*d[5mC]*dA*kT*kT*kT; antisense) [compound 800002]
## Result 0

## Task Supply measured % Inhibition of 830154 (antisense kG*kT*kG*d[5mC]*d[5mC]*dT*d[5mC]*dA*dG*d[5mC]*dA*dG*dT*kT*kA*kA) [compound 830154] in your reply.
## Result 48

## Task Output % Inhibition of 772536 (antisense kG*kA*k[5mC]*d[5mC]*dT*d[5mC]*d[5mC]*dG*d[5mC]*dA*d[5mC]*dA*d[5mC]*k[5mC]*kA*kT) [compound 772536]
## Result 22

## Task Output measured % Inhibition for this item: 800046 (kG*kG*k[5mC]*d[5mC]*dA*dA*d[5mC]*dA*dG*dG*dA*dG*dG*kA*kG*kG; antisense) [compound 800046]
## Result 42

## Task Please look at this substance and report its % Inhibition: 800063 (antisense kG*k[5mC]*k[5mC]*dA*dT*dA*d[5mC]*dA*dA*dA*dT*dG*dT*kG*k[5mC]*kA) [compound 800063]
## Result 0

## Task Annotate the substance 799355 (kA*kG*kG*dA*dA*dA*d[5mC]*d[5mC]*dT*dA*dG*dA*dA*k[5mC]*k[5mC]*kA; antisense) [compound 799355] with its measured % Inhibition.
## Result 23

## Task Read the entry 798716 (antisense k[5mC]*k[5mC]*kT*dG*d[5mC]*d[5mC]*d[5mC]*dG*dG*dG*d[5mC]*d[5mC]*dG*k[5mC]*k[5mC]*kG) [compound 798716] and write its reported % Inhibition.
## Result 0

## Task Answer with the recorded % Inhibition of 798752 (k[5mC]*kG*kG*d[5mC]*d[5mC]*dG*dG*dG*d[5mC]*dA*dG*d[5mC]*dA*kG*kG*kA; antisense) [compound 798752] only.
## Result 0

## Task Supply % Inhibition value. Item: 800028 (k[5mC]*kA*k[5mC]*dA*dG*d[5mC]*d[5mC]*d[5mC]*dA*d[5mC]*dA*d[5mC]*dG*kA*kG*kT; antisense) [compound 800028]
## Result 10

## Task Annotate the substance 830025 (antisense TTTGTAAATCGAAAGC; 3-10-3 cEt gapmer, further chemistry not given here) [compound 830025] with its measured % Inhibition.
## Result 62

## Task Specify reported % Inhibition for the substance shown: 799869 (k[5mC]*k[5mC]*kA*dT*dA*dA*dA*d[5mC]*dA*dT*dG*dG*dG*k[5mC]*kT*k[5mC]; antisense) [compound 799869]
## Result 16

## Task Check the records and state % Inhibition for 799408 (antisense kT*kT*kA*dA*dA*dT*d[5mC]*d[5mC]*dT*dG*dA*dG*dA*kA*k[5mC]*kA) [compound 799408]
## Result 27

## Task Return % Inhibition (reported value) for this substance: 798702 (antisense k[5mC]*k[5mC]*k[5mC]*d[5mC]*dT*dT*d[5mC]*dT*d[5mC]*d[5mC]*d[5mC]*d[5mC]*dG*k[5mC]*kA*kG) [compound 798702]
## Result 45

## Task Report % Inhibition for 830163 (antisense k[5mC]*kA*kA*d[5mC]*dT*dG*dA*dA*dG*dG*dT*dG*dA*k[5mC]*k[5mC]*k[5mC]) [compound 830163]
## Result 60

## Task Please list % Inhibition recorded for the substance 799435 (antisense kT*k[5mC]*k[5mC]*dT*d[5mC]*dA*dA*dA*d[5mC]*d[5mC]*dT*dT*dT*k[5mC]*kA*kG) [compound 799435]
## Result 60

## Task Please give measured % Inhibition of the following entry: 798917 (kG*k[5mC]*kT*d[5mC]*dA*d[5mC]*dG*d[5mC]*dT*d[5mC]*dT*dG*dT*k[5mC]*k[5mC]*k[5mC]; antisense) [compound 798917]
## Result 0

## Task Entry 799888 (antisense kG*kG*kA*d[5mC]*dA*dA*dA*dA*d[5mC]*d[5mC]*d[5mC]*d[5mC]*dT*kA*kG*kA) [compound 799888] needs its % Inhibition filled in; supply it.
## Result 22
